B1: STK38L (parent)
chain: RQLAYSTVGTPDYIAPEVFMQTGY

# Variants of: B1
# Assay: protein stability index of a GFP-peptide fusion (GPS, HEK-293T) (PSI 1-6); higher = more stable;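 note: lentivirally expressed fusions sorted by FACS into six bins by GFP to DsRed ratio, PSI derived from sequencing read proportions per bin multiplied by bin number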
# Recorded conditions: c terminus: a fixed tail appended
Label scheme for protein stability index: lower than 2 is criterion not met, 2 and above is criterion met.

Variant label | Discrete label
Y24M | criterion met
T22W | criterion not met
R1S | criterion met
G23Q | criterion met
E17H | criterion met
A15S | criterion met
S6H | criterion met
T7M | criterion not met
Q2F | criterion met
L3Q | criterion met
Q21E | criterion met
Q21I | criterion not met
T22H | criterion met
D12W | criterion met
T22C | criterion met
P11Y | criterion met
F19M | criterion met
G23Y | criterion not met
A4W | criterion not met
Q21T | criterion met
S6E | criterion met
V18M | criterion met
G9D | criterion met
Q21V | criterion not met
S6Y | criterion not met
I14V | criterion met
G23S | criterion met
Y5I | criterion met
V18I | criterion met
L3A | criterion met
R1N | criterion met
D12R | criterion met
